Where do the numbers come from? From PubChem BioAssay (NCATS).

Tested on: CP217
Experiment: qHTS profiling for inhibitors of Plasmodium falciparum proliferation (AID 504749); also: nearly all actives have a fitted effect of over 60% in size
Conditions: P. falciparum in erythrocytes, SYBR Green DNA, 72 h; series mostly up to 28.7 µM
Inconclusive results are not listed. The source made the active and inactive calls. Calls follow the shape of the dose curve; as a rule, active = well fitted inhibition curve with a large enough effect; inconclusive = small, poorly fitted or top-dose-only effect; inactive = flat fitted curve, though single readings scatter.
Possible outcomes: active, inactive

- COMPOUND: "CCOC(=O)Cc1ccc(-c2ccccc2)cc1"
  DISCRETE_LABEL: "inactive"
- COMPOUND: "COC(=O)CC[C@H](N)C(=O)O"
  DISCRETE_LABEL: "inactive"
- COMPOUND: "O=C(CCCN1CCC(C(=O)c2ccc(F)cc2)CC1)c1ccc(F)cc1"
  DISCRETE_LABEL: "inactive"
- COMPOUND: "Cc1ccc(S(=O)(=O)O)cc1C"
  DISCRETE_LABEL: "inactive"
- COMPOUND: "C[Si](C)(C)O[Si](C)(C)C"
  DISCRETE_LABEL: "inactive"
- COMPOUND: "CC(=O)[O][Al][O]C(C)=O"
  DISCRETE_LABEL: "inactive"
- COMPOUND: "CCC(O)c1ccccc1 (centres undefined)"
  DISCRETE_LABEL: "inactive"
- COMPOUND: "CN(C)CCCSc1ccccc1NC(=O)/C=C/c1ccccc1"
  DISCRETE_LABEL: "inactive"
- COMPOUND: "C=CC(C)(O)CC/C=C(\\C)CCC=C(C)C (centres undefined)"
  DISCRETE_LABEL: "inactive"
- COMPOUND: "CC(C)C1=CC2=CC[C@@H]3[C@](C)(CCC[C@@]3(C)C(=O)O)[C@H]2CC1"
  DISCRETE_LABEL: "inactive"
- COMPOUND: "CC1=CC(=C(c2ccc(N)cc2)c2ccc(N)cc2)C=CC1=N"
  DISCRETE_LABEL: "active"
- COMPOUND: "Cc1cccc(C)c1NC(=O)C1CCCCN1C (centres undefined)"
  DISCRETE_LABEL: "inactive"
- COMPOUND: "CC(C)CCC[C@@H](C)[C@H]1CC[C@H]2[C@@H]3CC=C4C[C@@H](O)CC[C@]4(C)[C@H]3CC[C@]12C"
  DISCRETE_LABEL: "inactive"
- COMPOUND: "CO[C@H]1C[C@@H]2CC[C@@H](C)[C@@](O)(O2)C(=O)C(=O)N2CCCC[C@H]2C(=O)O[C@H]([C@H](C)C[C@@H]2CC[C@@H](OC(=O)C(C)(CO)CO)[C@H](OC)C2)CC(=O)[C@H](C)/C=C(\\C)[C@@H](O)[C@@H](OC)C(=O)[C@H](C)C[C@H](C)/C=C/C=C/C=C/1C"
  DISCRETE_LABEL: "inactive"
- COMPOUND: "O=C(OCc1ccccc1)c1ccc(O)cc1"
  DISCRETE_LABEL: "inactive"
- COMPOUND: "O=C(NCCNCC(O)COc1ccc(O)cc1)N1CCOCC1 (centres undefined)"
  DISCRETE_LABEL: "inactive"
- COMPOUND: "OCC(O)CO"
  DISCRETE_LABEL: "inactive"
- COMPOUND: "COc1ccc(/C=C/C(=O)OCCC(C)C)cc1"
  DISCRETE_LABEL: "inactive"
- COMPOUND: "COC(=O)CCC[N+](C)(C)C"
  DISCRETE_LABEL: "inactive"
- COMPOUND: "CCCC(=O)O"
  DISCRETE_LABEL: "inactive"
- COMPOUND: "O=C(NNCNNC(=O)c1ccncc1)c1ccncc1"
  DISCRETE_LABEL: "inactive"
- COMPOUND: "CC(=O)Nc1ccc(NC(=S)NC(=O)c2ccc(C(C)(C)C)cc2)cc1"
  DISCRETE_LABEL: "inactive"
- COMPOUND: "O=C(O[C@H]1CN2CCC1CC2)N1CCc2ccccc2[C@@H]1c1ccccc1"
  DISCRETE_LABEL: "inactive"
- COMPOUND: "CCc1ncnc2cc(OC)c(OC)cc12"
  DISCRETE_LABEL: "inactive"
